Numbers sourced from patent US11013780B2.

# measurement.notes: Pharmacokinetics in dogs after SC and IV administration
# experimental.conditions: dog, in vivo, sc, 10 mg/kg, T½ β
Where a SMILES comes first, the peptide text is derived from it. [ ]: non-standard residue; d: D form. Arg(Me) = CNC(=N)NCCC[C@H](N)C(=O)O; Hyp = O=C(O)[C@@H]1C[C@@H](O)CN1; azaGly = NNC(=O)O
measurement.label: half-life (h)
Just the number please, in h, no unit attached.

Query block: // Input: CNC(=N)NCCC[C@H](NC(=O)[C@H](CC(C)C)NC(=O)NNC(=O)[C@H](Cc1ccccc1)NC(=O)[C@@H](NC(=O)[C@H](CC(N)=O)NC(=O)[C@@H]1C[C@@H](O)CN1C(=O)[C@@H](Cc1ccc(O)cc1)NC(C)=O)[C@@H](C)O)C(=O)N[C@@H](Cc1c[nH]c2ccccc12)C(N)=O [Compound 1] (Ac-[dY][Hyp]NTF[azaGly]L[Arg(Me)]W-NH2) . Output its half-life only.
Result block: 1.5

----------
# measurement.notes: Single dose PK, phase 1, healthy European men
# Assay type: in vivo, human
# experimental.conditions: male, human, plasma, subcutaneous, 2-hour INF 6 mg, geometric mean
Where a SMILES comes first, the peptide text is derived from it. [ ]: non-standard residue; d: D form. Arg(Me) = CNC(=N)NCCC[C@H](N)C(=O)O; Hyp = O=C(O)[C@@H]1C[C@@H](O)CN1; azaGly = NNC(=O)O
measurement.label: AUC(0-t)
Units required after the number.

Query block: // Input: CC(=O)O.CNC(=N)NCCC[C@H](NC(=O)[C@H](CC(C)C)NC(=O)NNC(=O)[C@H](Cc1ccccc1)NC(=O)[C@@H](NC(=O)[C@H](CC(N)=O)NC(=O)[C@@H]1C[C@@H](O)CN1C(=O)[C@@H](Cc1ccc(O)cc1)NC(C)=O)[C@@H](C)O)C(=O)N[C@@H](Cc1c[nH]c2ccccc12)C(N)=O [API-MA] (Ac-[dY][Hyp]NTF[azaGly]L[Arg(Me)]W-NH2) . Output its AUC(0-t) only.
Result block: 318 ng·h/mL

----------
# measurement.notes: Pharmacokinetics in rats after SC and IV administration
# experimental.conditions: rat, in vivo; rats, IV 1 mg/kg, PK linearity study; read-out: C5min
Where a SMILES comes first, the peptide text is derived from it. [ ]: non-standard residue; d: D form. Arg(Me) = CNC(=N)NCCC[C@H](N)C(=O)O; Hyp = O=C(O)[C@@H]1C[C@@H](O)CN1; azaGly = NNC(=O)O
measurement.label: level at 5 min (ng/mL)
Just the number please, in ng/mL, no unit attached.

Query block: // Input: CC(=O)O.CNC(=N)NCCC[C@H](NC(=O)[C@H](CC(C)C)NC(=O)NNC(=O)[C@H](Cc1ccccc1)NC(=O)[C@@H](NC(=O)[C@H](CC(N)=O)NC(=O)[C@@H]1C[C@@H](O)CN1C(=O)[C@@H](Cc1ccc(O)cc1)NC(C)=O)[C@@H](C)O)C(=O)N[C@@H](Cc1c[nH]c2ccccc12)C(N)=O [API-MA] (Ac-[dY][Hyp]NTF[azaGly]L[Arg(Me)]W-NH2) . Output its level at 5 min only.
Result block: 2580

----------
# measurement.notes: Pharmacokinetics in rats after SC and IV administration
# experimental.conditions: rat, in vivo, iv, 1 mg/kg
Where a SMILES comes first, the peptide text is derived from it. [ ]: non-standard residue; d: D form. Arg(Me) = CNC(=N)NCCC[C@H](N)C(=O)O; Hyp = O=C(O)[C@@H]1C[C@@H](O)CN1; azaGly = NNC(=O)O
measurement.label: Cmax at 5 min
Units required after the number.

Query block: // Input: CNC(=N)NCCC[C@H](NC(=O)[C@H](CC(C)C)NC(=O)NNC(=O)[C@H](Cc1ccccc1)NC(=O)[C@@H](NC(=O)[C@H](CC(N)=O)NC(=O)[C@@H]1C[C@@H](O)CN1C(=O)[C@@H](Cc1ccc(O)cc1)NC(C)=O)[C@@H](C)O)C(=O)N[C@@H](Cc1c[nH]c2ccccc12)C(N)=O [Compound 1] (Ac-[dY][Hyp]NTF[azaGly]L[Arg(Me)]W-NH2) . Output its Cmax at 5 min only.
Result block: 2670 ng/mL

----------
# measurement.notes: 1-month depot PK, prostate cancer patients
# Format: in vivo, human
# experimental.conditions: male, human, plasma; prostate cancer patients, 1-month depot SC 24 mg/month, geometric mean
Where a SMILES comes first, the peptide text is derived from it. [ ]: non-standard residue; d: D form. Arg(Me) = CNC(=N)NCCC[C@H](N)C(=O)O; Hyp = O=C(O)[C@@H]1C[C@@H](O)CN1; azaGly = NNC(=O)O
measurement.label: Cmax

Query block: // Input: CC(=O)O.CNC(=N)NCCC[C@H](NC(=O)[C@H](CC(C)C)NC(=O)NNC(=O)[C@H](Cc1ccccc1)NC(=O)[C@@H](NC(=O)[C@H](CC(N)=O)NC(=O)[C@@H]1C[C@@H](O)CN1C(=O)[C@@H](Cc1ccc(O)cc1)NC(C)=O)[C@@H](C)O)C(=O)N[C@@H](Cc1c[nH]c2ccccc12)C(N)=O [API-MA] (Ac-[dY][Hyp]NTF[azaGly]L[Arg(Me)]W-NH2) . Output its Cmax only.
Result block: 25.5 ng/mL

----------
# measurement.notes: Pharmacokinetics in dogs after SC and IV administration
# experimental.conditions: dog, in vivo, sc, 1 mg/kg
Where a SMILES comes first, the peptide text is derived from it. [ ]: non-standard residue; d: D form. Arg(Me) = CNC(=N)NCCC[C@H](N)C(=O)O; Hyp = O=C(O)[C@@H]1C[C@@H](O)CN1; azaGly = NNC(=O)O
measurement.label: Cmax

Query block: // Input: CNC(=N)NCCC[C@H](NC(=O)[C@H](CC(C)C)NC(=O)NNC(=O)[C@H](Cc1ccccc1)NC(=O)[C@@H](NC(=O)[C@H](CC(N)=O)NC(=O)[C@@H]1C[C@@H](O)CN1C(=O)[C@@H](Cc1ccc(O)cc1)NC(C)=O)[C@@H](C)O)C(=O)N[C@@H](Cc1c[nH]c2ccccc12)C(N)=O [Compound 1] (Ac-[dY][Hyp]NTF[azaGly]L[Arg(Me)]W-NH2) . Output its Cmax only.
Result block: 883 ng/mL

----------
# measurement.notes: Single dose PK, phase 1, healthy European men
# Assay type: in vivo, human
# experimental.conditions: male, human, plasma, subcutaneous, 2-hour INF 3 mg, read-out: Tmax (median)
Where a SMILES comes first, the peptide text is derived from it. [ ]: non-standard residue; d: D form. Arg(Me) = CNC(=N)NCCC[C@H](N)C(=O)O; Hyp = O=C(O)[C@@H]1C[C@@H](O)CN1; azaGly = NNC(=O)O
measurement.label: Tmax (h)
Just the number please, in h, no unit attached.

Query block: // Input: CC(=O)O.CNC(=N)NCCC[C@H](NC(=O)[C@H](CC(C)C)NC(=O)NNC(=O)[C@H](Cc1ccccc1)NC(=O)[C@@H](NC(=O)[C@H](CC(N)=O)NC(=O)[C@@H]1C[C@@H](O)CN1C(=O)[C@@H](Cc1ccc(O)cc1)NC(C)=O)[C@@H](C)O)C(=O)N[C@@H](Cc1c[nH]c2ccccc12)C(N)=O [API-MA] (Ac-[dY][Hyp]NTF[azaGly]L[Arg(Me)]W-NH2) . Output its Tmax only.
Result block: 2.25

----------
# measurement.notes: Multiple-dose PK, 2-hour SC infusion once daily for 14 days, Japanese prostate cancer patients
# Format: in vivo, human
# experimental.conditions: male, human, in vivo, sc, 1 mg/day, Japanese prostate cancer patients, 2-hour SC infusion 1.0 mg/day, Day 14, mean
Where a SMILES comes first, the peptide text is derived from it. [ ]: non-standard residue; d: D form. Arg(Me) = CNC(=N)NCCC[C@H](N)C(=O)O; Hyp = O=C(O)[C@@H]1C[C@@H](O)CN1; azaGly = NNC(=O)O
measurement.label: Cmax (ng/mL)
Just the number please, in ng/mL, no unit attached.

Query block: // Input: CC(=O)O.CNC(=N)NCCC[C@H](NC(=O)[C@H](CC(C)C)NC(=O)NNC(=O)[C@H](Cc1ccccc1)NC(=O)[C@@H](NC(=O)[C@H](CC(N)=O)NC(=O)[C@@H]1C[C@@H](O)CN1C(=O)[C@@H](Cc1ccc(O)cc1)NC(C)=O)[C@@H](C)O)C(=O)N[C@@H](Cc1c[nH]c2ccccc12)C(N)=O [API-MA] (Ac-[dY][Hyp]NTF[azaGly]L[Arg(Me)]W-NH2) . Output its Cmax only.
Result block: 15.5

----------
# measurement.notes: Pharmacokinetics in rats after SC and IV administration
# experimental.conditions: rat, in vivo; rats, IV 0.01 mg/kg, PK linearity study; read-out: C5min
# Description: The PK of API-MA was studied in rats after SC and IV administration. The PK linearity of API-MA was also investigated in rats after IV administration. The plasma C5min and AUC(0-24) values increased dose-proportionally. […] The elimination T1/2 values were 0.4 hours at 0.01 and 0.1 mg/kg and 0.5 hours at 1 mg/kg. These findings indicate that the PK of API-FB was linear in rats after single IV administration over the dose range of 0.01 to 1 mg/kg. […]
Where a SMILES comes first, the peptide text is derived from it. [ ]: non-standard residue; d: D form. Arg(Me) = CNC(=N)NCCC[C@H](N)C(=O)O; Hyp = O=C(O)[C@@H]1C[C@@H](O)CN1; azaGly = NNC(=O)O
measurement.label: level at 5 min (ng/mL)
Just the number please, in ng/mL, no unit attached.

Query block: // Input: CC(=O)O.CNC(=N)NCCC[C@H](NC(=O)[C@H](CC(C)C)NC(=O)NNC(=O)[C@H](Cc1ccccc1)NC(=O)[C@@H](NC(=O)[C@H](CC(N)=O)NC(=O)[C@@H]1C[C@@H](O)CN1C(=O)[C@@H](Cc1ccc(O)cc1)NC(C)=O)[C@@H](C)O)C(=O)N[C@@H](Cc1c[nH]c2ccccc12)C(N)=O [API-MA] (Ac-[dY][Hyp]NTF[azaGly]L[Arg(Me)]W-NH2) . Output its level at 5 min only.
Result block: 24.1
